- assay_name: activity coefficient (dimensionless); of the first substance listed, at infinite dilution; xn = mol fraction of the nth substance listed
- condition_notes: 354.65 K; 101 kPa; Liquid; Chromatography; x1 = 0
Okay, here is how we bin by activity coefficient: 0 (below 1), 1 (1 to below 2), 2 (2 or more)

CC(C)OC(C)C [diisopropyl ether] + CCCCCC[n+]1ccn(C)c1.FC(F)(F)C(F)(F)[P-](F)(F)(F)(C(F)(F)C(F)(F)F)C(F)(F)C(F)(F)F: 1
CCC(=O)CC [pentan-3-one] + CCCCCC[n+]1ccn(C)c1.FC(F)(F)C(F)(F)[P-](F)(F)(F)(C(F)(F)C(F)(F)F)C(F)(F)C(F)(F)F: 0
Cc1ccccc1C [1,2-dimethylbenzene] + CCCCCC[n+]1ccn(C)c1.FC(F)(F)C(F)(F)[P-](F)(F)(F)(C(F)(F)C(F)(F)F)C(F)(F)C(F)(F)F: 0
Cc1ccccc1 [toluene] + CCCCCC[n+]1ccn(C)c1.FC(F)(F)C(F)(F)[P-](F)(F)(F)(C(F)(F)C(F)(F)F)C(F)(F)C(F)(F)F: 0
CCCCCCC [heptane] + CCCCCC[n+]1ccn(C)c1.FC(F)(F)C(F)(F)[P-](F)(F)(F)(C(F)(F)C(F)(F)F)C(F)(F)C(F)(F)F: 2

**Query** Just checking, what class would you give C#CCCCCC [1-heptyne] + CCCCCC[n+]1ccn(C)c1.FC(F)(F)C(F)(F)[P-](F)(F)(F)(C(F)(F)C(F)(F)F)C(F)(F)C(F)(F)F here?
**Result** 2

**Query** Record: CCC(C)CC [3-methylpentane] + CCCCCC[n+]1ccn(C)c1.FC(F)(F)C(F)(F)[P-](F)(F)(F)(C(F)(F)C(F)(F)F)C(F)(F)C(F)(F)F
**Result** 2
